The values you see were collected from patent US20130338367A1.

Structures can show the parent of a compound that is named as a salt.
readout_name: melting point

Solved entries:
CCNc1cn(-c2cccnc2)nc1C (as salt: hydrochloride) = 113 to 116 °C
O=C1CCCCN1c1cnn(-c2cccnc2)c1 = 123 to 124 °C

Consider the additional molecule presented here.
Summary for this molecule, CS(=O)(=O)Nc1cnn(-c2cccnc2)c1 : melting point is 140 to 150 °C

====

# mortality at 500 ppm per entry
Test system: Nilaparvata lugens
Assay: Insecticidal Test on Nilaparvata lugens
Assay type: in vivo
Settings: 144 h, 500 ppm solution, rice sheaths soaked, 2nd-instar nymphs, 25° C., 6 days after, read-out: mortality (%)
Method: 10% emulsifiable concentrates (or 10% wettable powders) of compounds of the present invention were diluted with water containing a spreader to obtain 500 ppm solutions. Rice sheaths were soaked in the solutions for about 10 seconds, dried in air and put in test tubes. […] 6 Days after, dead insects were counted, and the mortality (%) (the number of dead insects÷the number of released insects×100) was calculated. […]

Solved entries:
CSCCC(=O)N(C)c1cn(-c2cccnc2)nc1C [1-018] = ≥ 90%
O=C(CCCCl)Nc1cn(-c2cccnc2)nc1Cl [1-131] = ≥ 90%
CSCCCNc1cn(-c2cccnc2)nc1Cl [C-001] = ≥ 90%
CSCCNc1cn(-c2cccnc2)nc1Cl [C-002] = ≥ 90%
Cc1nn(-c2cccnc2)cc1N [B-009] = ≥ 90%

Consider the additional molecule presented here.
Summary for this molecule, CC(C)(C)OC(=O)Nc1cn(-c2cccnc2)nc1Br [1-188] : mortality at 500 ppm is ≥ 90%

====

# melting point per entry

Solved entries:
CSCC1CCN(c2cn(-c3cccnc3)nc2Cl)C1=O (centres unmarked) [1-141] = 83 to 84 °C
Clc1nn(-c2cccnc2)cc1NCC1CC1 [B-014] = 72 to 78 °C
O=C(Nc1cnn(-c2cccnc2)c1)C(Br)CCCBr (centres unmarked) [1-025] = 114 to 115 °C
CCSC(C)C(=O)N(CC)c1cn(-c2cccnc2)nc1Cl (centres unmarked) [1-118] = 65 to 66 °C

Summary for this compound, CN(C(=O)CCS(C)(=O)=O)c1cn(-c2cccnc2)nc1Cl [1-052] : melting point is 90 to 91 °C
